Origin of measurements: ChEMBL document CHEMBL5131470

Protocol: Selectivity index, ratio of EC50 for cytotoxicity against human HepG2 cells to EC50 for antimalarial activity against chloroquine-resistant Plasmodium falciparum Dd2
Format: toxicity, cell-based
Particulars: read-out: Ratio EC50
selectivity ratio values for the compounds below.
Give the figure only, with no unit attached.

Would you please look over these solved cases?
# Compound, selectivity ratio
data = [
    ("O=C(CN1CCC2(CC1)CC(=O)c1ccc3ccccc3c1O2)c1ccc(F)c(F)c1", 2.7),
    ("c1ccc(CN2CCC3(CCc4ccc5ccccc5c4O3)CC2)cc1", 4),
    ("c1ccc2c3c(ccc2c1)CCC1(CCNCC1)O3", 4),
    ("Fc1ccc(CCN2CCC3(CCc4ccc5ccccc5c4O3)CC2)cc1F", 4),
    ("O=C1CC2(CCN(CCC3CCCCC3)CC2)Oc2c1ccc1ccccc21", 31.2),
    ("O=C1CC2(CCN(CCc3ccccc3)CC2)Oc2c1ccc1ccccc21", 14),
    ("CCN1CCC2(C=Cc3ccc4ccccc4c3O2)CC1", 9.7),
    ("CCN1CCC2(CC1)CC(=O)c1ccc3ccccc3c1O2", 4.7),
]

OC1CC2(CCN(CCC3CCCCC3)CC2)Oc2c1ccc1ccccc21 (stereo not drawn) has a reported selectivity ratio of 35.1

c1ccc2c3c(ccc2c1)CCC1(CCN(CCC2CCCCC2)CC1)O3 has a reported selectivity ratio of 1.1

O=C1CC2(CCNCC2)Oc2c1ccc1ccccc21 has a reported selectivity ratio of 3.2

* * *

Test system: Plasmodium falciparum
Protocol: Antimalarial activity against chloroquine-resistant Plasmodium falciparum Dd2 assessed as inhibition of parasite growth incubated for 72 hrs by SYBR green I-based DNA quantification assay
Format: functional, organism-based
Particulars: Dd2, 72 h
Result type: EC50

Would you please look over these solved cases?
# Compound, EC50
rows = [
    ("Fc1ccc(CCN2CCC3(CCc4ccc5c(c4O3)CCCC5)CC2)cc1F", "> 2500 nM"),
    ("O=C(CN1CCC2(CC1)CC(O)c1ccc3ccccc3c1O2)c1ccc(F)c(F)c1 (stereo not given)", "> 2500 nM"),
    ("O[C@@H]1CC2(CCN(C[C@H](O)c3ccc(F)c(F)c3)CC2)Oc2c1ccc1ccccc21", "1060 nM"),
    ("O=C1C[C@]2(CCCN(CCc3ccc(F)c(F)c3)C2)Oc2c1ccc1ccccc21", "1840 nM"),
]

// moving on: another record for EC50
CCN1CCC[C@]2(CC(O)c3ccc4ccccc4c3O2)C1 (stereo not given in full) has a reported EC50 of > 2500 nM

* * *

Protocol: Aqueous solubility of the compound at pH 2 by HPLC analysis
Type: physicochemical
Particulars: aqueous solution
Result type: solubility

Would you please look over these solved cases?
# Compound, solubility
data = [
    ("CCN1CCC2(CC1)CC(O)c1ccc3ccccc3c1O2 (stereo not given)", "20 µM"),
    ("O=C(CN1CCC2(CC1)CC(=O)c1ccc3ccccc3c1O2)c1ccc(F)c(F)c1", "40 µM"),
    ("O=C(CN1CCC2(CC1)CC(O)c1ccc3ccccc3c1O2)c1ccc(F)c(F)c1 (stereo not given)", "20 µM"),
    ("O=C1CC2(CCN(CC(O)c3ccc(F)c(F)c3)CC2)Oc2c1ccc1ccccc21 (stereo not given)", "≥ 80 µM"),
]

// moving on: another record for solubility
c1ccc2c3c(ccc2c1)CCC1(CCN(CCC2CCCCC2)CC1)O3 has a reported solubility of 40 µM
